Attribute: GI50
System: U-251
Assay: NCI tumour cell line growth inhibition, 48 h
Calls of active or inactive are those of the source. No stated cut-off is given here; in the data, active = GI50 up to about 1.1 µM and inactive = higher.

// known answers, use as guide
[
  {
    "molecule": "O=C(O)c1ccc(/N=C(\\C(=N\\c2ccc(C(=O)O)cc2)c2ccccc2)c2ccccc2)cc1",
    "quantity-measured": "GI50",
    "endpoint-value": "> 100 µM (inactive)"
  },
  {
    "molecule": "NNC(=O)c1cccc2c1Oc1ccccc1S2",
    "quantity-measured": "GI50",
    "endpoint-value": "> 100 µM (inactive)"
  },
  {
    "molecule": "CN(C)C(=S)/N=c1\\ss/c(=N\\S(=O)(=O)c2ccccc2)n1-c1ccccc1",
    "quantity-measured": "GI50",
    "endpoint-value": "27 µM (inactive)"
  }
]

Quick one: GI50 for O=C1/C=C(/c2ccc(O)cc2)[C@@H](O)Cc2ccc(O)cc2O1 ?
> 100 µM (inactive)

Quick one: GI50 for CN1C(C(=O)Nc2ccccn2)=C(O)c2ccccc2S1(=O)=O [PIROXICAM] ?
> 100 µM (inactive)

Quick one: GI50 for C=CC[C@H](O)[C@@](NC(=O)OCc1ccccc1)(Sc1ccc(C)cc1)C(F)(F)F ?
14.5 µM (inactive)

Quick one: GI50 for NC(=O)c1c([N+](=O)[O-])cc(C(F)(F)F)cc1[N+](=O)[O-] ?
> 100 µM (inactive)

Quick one: GI50 for COc1ccc(NC(=S)NNC(=O)c2cc(-c3ccccc3)nc3ccccc23)cc1 ?
15.5 µM (inactive)

Quick one: GI50 for CCN(CC)C(c1ccc(N(C)C)cc1)C(c1ccc(N(C)C)cc1)N(CC)CC (stereo unspecified) ?
> 72.9 µM (inactive)

Quick one: GI50 for COC(=O)C1(Cc2ccc3c(c2)CCC3)Cc2cc3c(cc2C1)CCC3 ?
37.4 µM (inactive)

Quick one: GI50 for CCOC(=O)C1=C(Nc2ccc(Cl)c(Cl)c2)OC/C1=N\NS(=O)(=O)c1ccc(C)cc1 ?
66.5 µM (inactive)

Quick one: GI50 for CN(CCCNC(=O)c1nn(C)c2c1Cc1ccccc1-2)CCCNC(=O)c1nn(C)c2c1Cc1ccccc1-2 ?
12.5 µM (inactive)

Quick one: GI50 for CCOC(=O)c1cc(-c2ccc(OC)cc2)c([N+](=O)[O-])n1C ?
> 10 µM (inactive)

====

Test system: UO-31
Assay: NCI tumour cell line growth inhibition, 48 h
The source made the active and inactive calls. Rule as the data show it: active = GI50 up to about 1.1 µM and inactive = higher.
Result category, one only: active, inactive

Illustrative cases are given below, each with its answer.
[
  {
    "molecule": "CCOC(=O)Cc1nc(/C(C#N)=C/c2ccco2)[nH]c(=O)c1C#N",
    "tgt": "UO-31",
    "assigned-label": "inactive"
  },
  {
    "molecule": "COC(=O)C1(Cc2ccc3c(c2)CCC3)Cc2cc3c(cc2C1)CCC3",
    "tgt": "UO-31",
    "assigned-label": "inactive"
  },
  {
    "molecule": "CN(C)CS/C(N)=N\\C(O)C(Cl)(Cl)Cl (stereo not given)",
    "tgt": "UO-31",
    "assigned-label": "inactive"
  }
]

Recorded call for CC(=O)OCSc1ncnc2c1ncn2CN1CCOCC1 ?
inactive

Recorded call for O=C(O)C/C(=C\c1ccccc1)C(=O)O ?
inactive

Recorded call for NC(N)=NCCC(O)(P(=O)(O)O)P(=O)(O)O ?
inactive

Recorded call for Cc1ccccc1-n1c(=O)c2ncn(C3CCCO3)c2n(-c2ccccc2C)c1=S (stereo not given) ?
inactive

Recorded call for Cc1ccccc1Nc1cn(COCc2ccccc2)c(=O)[nH]c1=O ?
inactive

Recorded call for CC(=O)OC1CCC2C(=CCC3C2(C)C(=O)CC2(C)C(C4(C)OC(C(C)C)=CC4=O)C(O)CC32C)C1(C)C (stereo not given) ?
inactive

Recorded call for O=C(Nc1nc2ncn(CCNCc3ccccc3)c2c(=O)[nH]1)c1ccccc1 ?
inactive

Recorded call for CC(=O)NC1C(OCc2ccccc2)OC(CO)C(O)C1OC(C)C(=O)NC(C(=O)NC(CCC(=O)NCCCNc1ccc([N+](=O)[O-])c2[nH]c3ccccc3c(=O)c12)C(N)=O)C(C)C (stereo not given) ?
inactive

Recorded call for O=C1N[C@H]2c3c(Cl)sc(Cl)c3[C@@H](O)[C@H]2O1 ?
inactive

Recorded call for [O-][n+]1onc2c1CCC(=N\O)/C2=N/Nc1ccccc1 ?
inactive

Recorded call for CC(C(=O)NCNC(=O)c1ccccc1)C(=O)NCc1ccccc1 (stereo not given) ?
inactive

Recorded call for CN(CCCNC(=O)c1nn(C)c2c1Cc1ccccc1-2)CCCNC(=O)c1nn(C)c2c1Cc1ccccc1-2 ?
active

Recorded call for O=c1[nH]nc(Cc2ccc(Cl)cc2)n1/N=C\CC/C=N\n1c(Cc2ccc(Cl)cc2)n[nH]c1=O ?
inactive

Recorded call for CCOC(=O)c1c(N2CCCC2)nsc1Nc1ccccc1 ?
inactive
